tested.on: TLR8 (Homo sapiens, UniProt Q9NR97)
Sequence (Q9NR97 27-1041): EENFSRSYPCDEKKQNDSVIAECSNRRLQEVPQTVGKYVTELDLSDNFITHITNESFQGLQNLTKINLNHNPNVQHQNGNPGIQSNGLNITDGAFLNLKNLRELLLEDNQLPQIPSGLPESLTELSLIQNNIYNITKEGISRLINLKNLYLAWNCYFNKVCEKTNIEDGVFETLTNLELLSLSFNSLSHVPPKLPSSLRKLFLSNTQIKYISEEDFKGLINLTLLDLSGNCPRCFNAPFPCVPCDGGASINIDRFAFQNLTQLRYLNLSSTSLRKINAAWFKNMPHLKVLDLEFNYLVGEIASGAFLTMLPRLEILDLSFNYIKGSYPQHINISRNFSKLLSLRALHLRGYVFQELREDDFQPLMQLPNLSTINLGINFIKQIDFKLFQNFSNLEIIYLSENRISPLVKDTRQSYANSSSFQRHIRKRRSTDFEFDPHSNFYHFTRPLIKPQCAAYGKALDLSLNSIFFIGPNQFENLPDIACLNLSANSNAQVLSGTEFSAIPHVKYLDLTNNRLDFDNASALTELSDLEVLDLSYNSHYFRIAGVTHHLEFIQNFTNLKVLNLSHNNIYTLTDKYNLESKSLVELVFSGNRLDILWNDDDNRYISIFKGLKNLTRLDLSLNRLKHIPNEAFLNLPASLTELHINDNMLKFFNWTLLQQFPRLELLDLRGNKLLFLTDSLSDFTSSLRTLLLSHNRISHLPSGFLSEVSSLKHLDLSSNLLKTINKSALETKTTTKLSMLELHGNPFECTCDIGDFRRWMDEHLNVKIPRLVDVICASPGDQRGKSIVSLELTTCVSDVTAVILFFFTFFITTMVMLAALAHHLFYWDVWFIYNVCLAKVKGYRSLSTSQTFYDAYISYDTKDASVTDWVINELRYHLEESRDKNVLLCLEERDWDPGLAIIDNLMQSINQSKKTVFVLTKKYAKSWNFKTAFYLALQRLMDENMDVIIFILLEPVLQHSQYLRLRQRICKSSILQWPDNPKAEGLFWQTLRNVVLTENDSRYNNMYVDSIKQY
experiment: HEK-TLR8 NF-κB-luciferase reporter, R848 or Motolimod stimulation (potentiation or inhibition)
Format: cell-based
Parameters: expressed in transfected cells; host or cells: 293XLhTLR8 (HEK293)
condition.notes: HEK-TLR8; 500 nM ASO; fold increase relative to R848 without ASO (Alharbi et al., 2020)
In the oligonucleotide strings, read from the 5' end, every base follows the letter of its sugar. An asterisk marks phosphorothioate; unmarked linkages are phosphodiester. Other units and linkages are bracketed, terminal groups are in braces. A string of capitals states the bases alone. d = 2'-deoxy (DNA); m = 2'-O-methyl
readout.label: TLR8-500 nM: averaged NF-κB-Luciferase relative to R848 (fold)
One number for each entry, in fold.

substance	tested.on	observed.result
mU*mC*mU*mC*mU*C*T*G*G*T*C*C*C*A*T*mC*mC*mC*mU*mU (mU*mC*mU*mC*mU*dC*dT*dG*dG*dT*dC*dC*dC*dA*dT*mC*mC*mC*mU*mU; antisense) [[LINC-PINT]110]	TLR8 (Homo sapiens, UniProt Q9NR97)	11.27

For every listed record, write down its TLR8-500 nM: averaged NF-κB-Luciferase relative to R848.
1. mU*mA*mU*mU*mU*C*C*A*C*A*T*G*C*C*C*mA*mG*mU*mG*mU (mU*mA*mU*mU*mU*dC*dC*dA*dC*dA*dT*dG*dC*dC*dC*mA*mG*mU*mG*mU; antisense) [[CDKN2B-AS1]627]
2. mA*mG*mU*mG*mG*C*A*C*A*T*A*C*C*A*C*mA*mC*mC*mC*mU (AGUGGCACATACCACACCCU; antisense; sugars from the 5' end m5 d10 m5, all phosphorothioate, methylation of C not given here) [[CDKN2B-AS1]495]
3. mA*mC*mC*mC*mU*T*C*T*C*T*C*T*G*G*T*mC*mC*mC*mA*mU (mA*mC*mC*mC*mU*dT*dC*dT*dC*dT*dC*dT*dG*dG*dT*mC*mC*mC*mA*mU; antisense) [[LINC-PINT]115]
4. mU*mU*mA*mA*mA*T*A*A*T*C*T*A*G*T*T*mU*mG*mA*mA*mG (UUAAATAATCTAGTTUGAAG; sugars from the 5' end m5 d10 m5, all phosphorothioate, methylation of C not given here) [[CDKN2B-AS1]132]
5. mG*mG*mG*mU*mC*T*C*C*T*C*C*A*C*A*C*mC*mC*mU*mU*mC (GGGUCTCCTCCACACCCUUC; antisense; sugars from the 5' end m5 d10 m5, all phosphorothioate, methylation of C not given here) [[LINC-PINT]128]
6. mG*mG*mU*mG*mG*C*C*A*C*A*G*G*C*A*A*mC*mG*mU*mC*mA (GGUGGCCACAGGCAACGUCA; antisense; sugars from the 5' end m5 d10 m5, all phosphorothioate, methylation of C not given here) [[CDKN2B-AS1]2196]

a:
1: 3.87; 2: 4.48; 3: 7.57; 4: 6.43; 5: 1.23; 6: 0.98

Please state TLR8-500 nM: averaged NF-κB-Luciferase relative to R848 for every substance in the list that follows.
1. mC*mC*mA*mU*mG*T*C*C*C*A*G*G*C*C*T*mC*mC*mA*mG*mU (CCAUGTCCCAGGCCTCCAGU; sugars from the 5' end m5 d10 m5, all phosphorothioate, methylation of C not given here) [[CDKN2B-AS1]2227]
2. mG*mU*mC*mU*mC*C*A*T*G*T*C*C*C*A*G*mG*mC*mC*mU*mC (mG*mU*mC*mU*mC*dC*dA*dT*dG*dT*dC*dC*dC*dA*dG*mG*mC*mC*mU*mC) [[CDKN2B;AS1]2231]
3. mC*mC*mU*mU*mC*T*G*C*T*G*C*C*A*A*G*mC*mC*mC*mC*mA (mC*mC*mU*mU*mC*dT*dG*dC*dT*dG*dC*dC*dA*dA*dG*mC*mC*mC*mC*mA; antisense) [[LINC-PINT]94]

a:
1: 1.46; 2: 1.25; 3: 3.71

Give me TLR8-500 nM: averaged NF-κB-Luciferase relative to R848 for each of these substances, listed below.
1. mU*mU*mG*mG*mC*C*T*G*T*G*G*A*T*G*C*mU*mU*mU*mG*mU (mU*mU*mG*mG*mC*dC*dT*dG*dT*dG*dG*dA*dT*dG*dC*mU*mU*mU*mG*mU) [[LINC-PINT]2673.1]
2. mU*mA*mA*mA*mA*T*A*A*G*G*G*G*A*A*T*mA*mG*mG*mG*mG (mU*mA*mA*mA*mA*dT*dA*dA*dG*dG*dG*dG*dA*dA*dT*mA*mG*mG*mG*mG) [[CDKN2B-AS1]80]
3. mG*mC*mG*mU*mA*G*T*T*T*C*T*C*T*T*C*mC*mU*mC*mC*mC (GCGUAGTTTCTCTTCCUCCC; sugars from the 5' end m5 d10 m5, all phosphorothioate, methylation of C not given here) [[LINC-PINT]935 KL]
4. mA*mA*mA*mA*mU*A*A*G*G*G*G*A*A*T*A*mG*mG*mG*mG*mA (mA*mA*mA*mA*mU*dA*dA*dG*dG*dG*dG*dA*dA*dT*dA*mG*mG*mG*mG*mA; antisense) [[CDKN2B-AS1]79]
5. mC*mC*mU*mU*mC*T*C*T*C*T*G*GT*C*C*mC*mA*mU*mC*mC (CCUUCTCTCTGGTCCCAUCC; antisense; chemistry not fully specified) [[LINC-PINT]113]
6. mU*mG*mA*mU*mG*A*T*G*C*T*T*G*C*A*G*mG*mA*mG*mG*mC (mU*mG*mA*mU*mG*dA*dT*dG*dC*dT*dT*dG*dC*dA*dG*mG*mA*mG*mG*mC) [[LINC-PINT|283.1]

a:
[0.94, 1.30, 4.12, 0.71, 3.51, 1.57]

q: Give the measured TLR8-500 nM: averaged NF-κB-Luciferase relative to R848 for mA*mG*mC*mA*mG*T*C*T*C*C*A*T*G*T*C*mC*mC*mA*mG*mG (AGCAGTCTCCATGTCCCAGG; antisense; sugars from the 5' end m5 d10 m5, all phosphorothioate, methylation of C not given here) [[CDKN2B-AS1]2235]
a: 4.93
